Biological target: NAD-dependent protein deacetylase sirtuin-2 (Homo sapiens)
Sequence (Q8IXJ6 whole entry): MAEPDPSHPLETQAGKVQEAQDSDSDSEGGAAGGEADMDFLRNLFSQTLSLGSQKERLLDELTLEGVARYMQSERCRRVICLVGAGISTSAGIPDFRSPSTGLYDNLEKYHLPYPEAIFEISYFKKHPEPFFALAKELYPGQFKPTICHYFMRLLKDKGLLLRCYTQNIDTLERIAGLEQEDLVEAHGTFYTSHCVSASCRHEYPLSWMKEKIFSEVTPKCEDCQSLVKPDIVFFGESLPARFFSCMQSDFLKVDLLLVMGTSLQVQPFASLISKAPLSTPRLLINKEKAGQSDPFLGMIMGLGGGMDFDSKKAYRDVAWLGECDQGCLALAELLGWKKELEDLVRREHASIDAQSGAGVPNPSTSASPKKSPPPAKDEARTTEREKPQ
pIC50: −log10 of the molar value.
MEASURED METRIC: pIC50

Examples with their reported pIC50 follow.
COMPOUND: CC(C)(C)OC(=O)c1ccc(CN2CC(C(N)=O)Oc3ccccc32)cc1 (stereo not given)
ASSAYED TARGET: NAD-dependent protein deacetylase sirtuin-2 (Homo sapiens)
pIC50: 4.38
--
COMPOUND: Cc1ccccc1CN1CC(C(N)=O)Oc2ccccc21 (stereo not given)
ASSAYED TARGET: NAD-dependent protein deacetylase sirtuin-2 (Homo sapiens)
pIC50: 4.65
--
COMPOUND: NC(=O)C1CN(Cc2cnnn2Cc2ccccc2)c2ccccc2O1 (stereo not given)
ASSAYED TARGET: NAD-dependent protein deacetylase sirtuin-2 (Homo sapiens)
pIC50: 4.49
--
COMPOUND: NC(=O)C1CN(Cc2ccccc2N)c2ccccc2O1 (stereo not given)
ASSAYED TARGET: NAD-dependent protein deacetylase sirtuin-2 (Homo sapiens)
pIC50: 4.44
--
COMPOUND: NC(=O)C1CN(Cc2ccccc2C(F)(F)F)c2ccccc2O1 (stereo not given)
ASSAYED TARGET: NAD-dependent protein deacetylase sirtuin-2 (Homo sapiens)
pIC50: 4.60

(P) NC(=O)C1CN(Cc2ccc3c(c2)OCO3)c2ccccc2O1 (stereo not given)
(Q) NC(=O)C1CN(Cc2cccc(Br)c2)c2ccccc2O1 (stereo not given)
(R) NC(=O)C1CN(Cc2cn(Cc3ccccc3)nn2)c2ccccc2O1 (stereo not given)
(S) NC(=O)C1CN(Cc2ccccc2[N+](=O)[O-])c2ccccc2O1 (stereo not given)
Kindly order the items shown according to pIC50, from the highest value down. Return the labels ranked in the requested order, please. Q, S, P, R
